Data provenance is ChEMBL document CHEMBL2331433.

Reported values of inhibition in vivo at 3 mg/kg for individual entries
species: Mus musculus; assay: animal or person; details: C57BL/6J, Plasma, po, read-out: INH
Description: Reduction in plasma triglyceride levels in C57BL/6J mouse at 3 mg/kg, po by colorimetric method based postprandial triglyceride assay

CCCCOc1cccc(C(=O)Nc2ccc(N3CCC(COc4cccc(C(=O)O)c4)CC3)nc2)c1	35%
Cc1c(C(=O)Nc2ccc(N3CCN(C(=O)Nc4ccccc4C(=O)O)CC3)nc2)oc2ccc(-c3ccccc3)cc12	51%
O=C(O)c1cccc(OCC2CCN(c3ccc(NC(=O)c4ccc5ccccc5c4)cn3)CC2)c1	29%

**Query** Consider the compound Cc1c(C(=O)Nc2ccc(N3CCC(COc4cccc(C(=O)O)c4)CC3)nc2)sc2ccc(-c3ccccc3)cc12 and give its recorded inhibition in vivo at 3 mg/kg.
**Result** 32%

**Query** Fill in inhibition in vivo at 3 mg/kg for record CC1CCCN(c2nc(C(F)(F)F)c(C(=O)Nc3ccc(N4CCC(COc5cccc(C(=O)O)c5)CC4)nc3)o2)C1 (stereo not given)
**Result** 36%

**Query** Give inhibition in vivo at 3 mg/kg for Cc1c(C(=O)Nc2ccc(N3CCC(COc4cccc(C(=O)O)c4)CC3)nc2)oc2ccc(-c3ccccc3)cc12
**Result** 64%

**Query** Answer with the recorded inhibition in vivo at 3 mg/kg for the compound listed here: O=C(O)c1cccc(OCC2CCN(c3ccc(NC(=O)c4cccc(Oc5ccccc5)c4)cn3)CC2)c1
**Result** 63%

**Query** Give the measured inhibition in vivo at 3 mg/kg for Cc1c(C(=O)Nc2ccc(N3CCN(C(=O)Nc4ccccc4F)CC3)nc2)oc2ccc(-c3ccccc3)cc12
**Result** 32%

**Query** Provide measured inhibition in vivo at 3 mg/kg value, entry: Cc1c(C(=O)Nc2ccc(N3CCC(OCc4cccc(C(=O)O)c4)CC3)nc2)oc2ccc(-c3ccccc3)cc12
**Result** 47%

**Query** Note inhibition in vivo at 3 mg/kg for the compound shown: O=C(O)c1cccc(OCC2CCN(c3ccc(NC(=O)c4ccc(Oc5ccccc5)cc4)cn3)CC2)c1
**Result** 10%
